Values from patent US10961215B2

assayed-target: GST tagged LXRalpha LBD (ligand binding domain) (Homo sapiens, UniProt Q13133)
Construct: purchased Invitrogen pv4655
Sequence (Q13133 209-447 limits assumed): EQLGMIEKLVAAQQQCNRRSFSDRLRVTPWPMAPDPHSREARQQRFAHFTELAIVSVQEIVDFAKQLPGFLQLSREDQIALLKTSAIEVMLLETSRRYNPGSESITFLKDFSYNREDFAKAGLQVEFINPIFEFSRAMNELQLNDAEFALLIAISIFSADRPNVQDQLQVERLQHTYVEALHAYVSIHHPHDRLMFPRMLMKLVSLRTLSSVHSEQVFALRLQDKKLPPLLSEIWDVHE
protocol-text: LanthaScreen TR-FRET Liver X Receptor Coactivator Assay, LXR alpha-LBD (co-activator recruitment; IP and % Emax relative to T0901317)
Type: biochemical
condition-summary: efficacy at max dose in relation to reference T0901317, LXR alpha-LBD; read-out: LXR alpha actiivty at max dose (%)
attribute-measured: Emax (%)

smiles_representation=CN(C)C(=O)c1ccc(N2CCC(CCCN(C)C(=O)C3(c4ccccc4)CCC3)CC2)nc1Cl attribute_measured=Emax numeric_value=11
smiles_representation=CN(C)C(=O)c1ccc(N2CCC(C)(CCCN(C)C(=O)[C@](O)(c3cccc(OC(F)(F)F)c3)C(F)(F)F)CC2)nc1Cl attribute_measured=Emax numeric_value=0
smiles_representation=CN(C)C(=O)c1ccc(N2CCC(F)(CCCN(C)C(=O)[C@](O)(c3ccccc3)C(F)(F)F)CC2)cc1Cl attribute_measured=Emax numeric_value=12

(a) COc1cccc([C@@](O)(C(=O)N(C)CC[C@@H]2CC23CCN(c2ccc(C(=O)N(C)C)c(Cl)c2)CC3)C(F)(F)F)c1
(b) COc1cccc([C@@](O)(C(=O)NCC[C@H]2CC23CCN(c2ccc(C(=O)N(C)C(C)C)c(Cl)c2)CC3)C(F)(F)F)c1
Sorting by Emax in descending order, would a or b appear first? State your choice using its label. a
(a: 3%, b: 1%)
